Where do these numbers come from? They come from PubChem BioAssay (Tox21).

- targetOrSystem: Cytochrome P450 1A2 (Homo sapiens)
- assaySummary: Cytochrome P450 Family 1 Subfamily A Member 2 (CYP1A2) small molecule antagonists: luciferase reporter qHTS assay (AID 1671199); note: nearly all actives have a fitted effect of over 50% in size; note: potency is the fitted concentration of half-maximal effect
- conditionDescription: P450-Glo CYP1A2 enzyme, luciferin luminescence, 1 h; series mostly up to 115 µM
Inconclusive results are not listed. Activity calls are given as the source filed them. Calls come from the whole dose curve; as a rule, active = well fitted inhibition curve with a large enough effect in the repeat runs; inconclusive = weak or mixed curves; inactive = no such curve, though single readings can be large or run the other way.
reportedMetric: Potency

Sample answers from the record:
// Potency lookup, compound = `OC1CCCCC1` , result: inactive

Recorded result, `Cc1ccccc1C=O` , Potency: inactive

response.value for `CCCCCNCCCCC` (field: Potency) = inactive

Data point: `O=C1CCCCCCCCCCC1` ; Potency = inactive

Each compound below has a recorded value; state its Potency.
1. CCCCCCC(=O)O
2. O=Cc1ccc(CO)o1
3. CCCCCCCC(=O)O
4. CC(C=O)Cc1ccc(C(C)(C)C)cc1 (stereo not drawn)
5. CC1(C)C(=O)N(Cl)C(=O)N1Cl

["inactive", "inactive", "inactive", "inactive", "inactive"]

Please go through the list and note Potency for each compound.
1. N#CCC(=O)O
2. Nc1cccc(C(F)(F)F)c1
3. C=CC(C)(C)C
4. COc1ccc(N)c(OC)c1
5. C=C(C)CC(C)(C)C
6. CC(=O)C(C)C
7. CCCCCCCCC(=O)O
8. Nc1cccc(N)n1

1: inactive; 2: inactive; 3: 44.8 µM (active); 4: 39.9 µM (active); 5: inactive; 6: inactive; 7: 38.6 µM (active); 8: inactive

Field Potency (entry `CCCCCCCCO` ) reads 37.1 µM (active)
